# assayed system: Hepatocyte nuclear factor 4-alpha (Homo sapiens) (UniProt P41235)
# Sequence (P41235 whole entry, looked up): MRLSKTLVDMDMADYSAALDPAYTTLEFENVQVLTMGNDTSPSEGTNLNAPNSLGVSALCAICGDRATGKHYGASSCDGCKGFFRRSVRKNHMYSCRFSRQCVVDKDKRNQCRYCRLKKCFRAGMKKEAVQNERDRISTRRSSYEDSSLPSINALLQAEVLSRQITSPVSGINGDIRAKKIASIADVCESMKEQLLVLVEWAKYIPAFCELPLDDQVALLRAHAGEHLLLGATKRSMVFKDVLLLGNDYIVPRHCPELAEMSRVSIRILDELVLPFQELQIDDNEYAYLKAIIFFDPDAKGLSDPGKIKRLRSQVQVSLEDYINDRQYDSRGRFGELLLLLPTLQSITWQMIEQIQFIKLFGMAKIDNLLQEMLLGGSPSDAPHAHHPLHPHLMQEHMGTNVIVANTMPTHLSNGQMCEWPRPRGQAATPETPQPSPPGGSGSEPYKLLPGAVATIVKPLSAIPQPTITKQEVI
# procedure text: change in binding of human HNF4A to DNA, primary screen, biochemical, fluorescence polarization, FITC-DNA (AID 1224865)
# test parameters: 1 h, at 10 µM, stronger effect = higher value
About 1,100 (0.31%) of roughly 360,000 compounds were called active. Only a selection was taken, and actives are over-represented in it overall.
Reported activity change values are given for each entry in this list.

Problem: Looking for the measured activity change of COc1cc(/C=C(\C#N)c2nc3ccccc3[nH]2)ccc1O , can you help?
Result: 50.5% (active)

Problem: Moving on to the next molecule: O=C(COC(=O)CSc1ccccc1)Nc1ccc(F)cc1F
Result: -1.87% (inactive)

Problem: Moving on to the next molecule: CCN(/N=C/c1ccc(N(C)C)cc1)c1nc2ccccc2[nH]1
Result: -0.96% (inactive)

Problem: Moving on to the next molecule: CN(C)C(=O)CCC(=O)N1CCCCC1C(=O)Nc1ccc(Oc2ccccc2F)cc1 (stereo unspecified)
Result: 1.87% (inactive)

Problem: Moving on to the next molecule: CCOC(=O)c1cccc(NC(=O)c2ccc(F)cc2F)c1
Result: 7% (inactive)
